Target: M. thermoresistibile OtsA wild type (Mycolicibacterium thermoresistibile)
Assay: Effect of feedback inhibitors and allosteric regulators on OtsA activity (wild type)
Assay type: biochemical, Mycobacterium thermoresistibile
Details: wild type; G6P and ADP-glucose both 0.3 mM; read-out: IC50 (95% confidence interval)
METRIC: IC50 (µM)
Give a bare numeral; the unit µM is implied.

In: Name the reported IC50 value associated with the molecule O=C(O)CCC(=O)C(=O)O [2OG, 2-oxoglutarate]
Out: 1800

====

Molecular target: M. thermoresistibile OtsA R384E (Mycolicibacterium thermoresistibile, UniProt G7CGT2, R384E)
Sequence (G7CGT2 1-486 R384E): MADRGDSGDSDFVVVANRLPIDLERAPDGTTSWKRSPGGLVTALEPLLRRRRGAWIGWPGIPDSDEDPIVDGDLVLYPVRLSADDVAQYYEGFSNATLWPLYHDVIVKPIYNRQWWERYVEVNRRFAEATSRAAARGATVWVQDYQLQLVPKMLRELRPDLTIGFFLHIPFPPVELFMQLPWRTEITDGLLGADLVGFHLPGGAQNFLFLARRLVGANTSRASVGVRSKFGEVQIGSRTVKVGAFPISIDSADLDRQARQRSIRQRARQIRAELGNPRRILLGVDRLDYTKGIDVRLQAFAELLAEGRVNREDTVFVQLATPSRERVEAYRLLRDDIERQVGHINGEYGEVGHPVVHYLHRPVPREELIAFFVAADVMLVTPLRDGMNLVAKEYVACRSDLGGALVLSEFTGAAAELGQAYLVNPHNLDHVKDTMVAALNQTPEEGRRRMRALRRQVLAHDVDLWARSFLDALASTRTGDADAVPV
Experiment: Effect of allosteric regulators on OtsA activity (R384E)
Details: R384E; G6P and ADP-glucose both 0.3 mM; read-out: EC50 (95% confidence interval), activation
Procedure: . All reagents used were obtained from Sigma-Aldrich. […] […]. All experiments were performed in triplicate in a PHERAstar plate reader (BMG Labtech), and data were analyzed with Prism 5 (GraphPad Software).
METRIC: EC50 (µM)
Hi! Could you send only the number? It should be in µM, unit omitted.

In: Any idea what its EC50 is? The molecule is O=C(O)CCC(=O)C(=O)O [2OG, 2-oxoglutarate]
Out: 700
